Source: paper PMC3289994

Target or system β-lactoglobulin (LG) (Bos taurus): recorded pKd listed per item.
In plain terms, pKd is the concentration in mol/L turned into minus its base-10 logarithm.

# count of solved cases: 3
compound="CC1=C[C@H](O)CC(C)(C)[C@H]1/C=C/C(C)=C/C=C/C(C)=C/C=C/C=C(C)/C=C/C=C(C)/C=C/C1=C(C)C[C@@H](O)CC1(C)C [Lutein, (3R, 3′R, 6′R)-lutein]" target_system="β-lactoglobulin (LG) (Bos taurus)" property_measured=pKd test_result=5.61
compound="CC1=C(/C=C/C(C)=C/C=C/C(C)=C/C=C/C=C(C)/C=C/C=C(C)/C=C/C2=C(C)CCCC2(C)C)C(C)(C)CCC1 [β-Carotene]" target_system="β-lactoglobulin (LG) (Bos taurus)" property_measured=pKd test_result=5.62
compound="CC1=C(/C=C/C(C)=C/C=C/C(C)=C/C=C/C=C(C)/C=C/C=C(C)/C=C/C2=C(C)C[C@@H](O)CC2(C)C)C(C)(C)C[C@H](O)C1 [Zeaxanthin, (3R, 3′R)-zeaxanthin]" target_system="β-lactoglobulin (LG) (Bos taurus)" property_measured=pKd test_result=5.64

Now look at this entry.
query: Query (compound): CC1=C(/C=C/C(C)=C/C=C/C(C)=C/C=C/C=C(C)/C=C/C=C(C)/C=C/C2=C(C)C(=O)[C@@H](O)CC2(C)C)C(C)(C)C[C@H](O)C1=O [Astaxanthin, (3S, 3′S)-astaxanthin] ; field requested: pKd
result: 5.72

====

Below, each of the compounds is paired with its reported Kd value.
Biological target: StARD1 protein binding domain (residues 63–285) (Homo sapiens, UniProt P49675)
Sequence (P49675 63-285): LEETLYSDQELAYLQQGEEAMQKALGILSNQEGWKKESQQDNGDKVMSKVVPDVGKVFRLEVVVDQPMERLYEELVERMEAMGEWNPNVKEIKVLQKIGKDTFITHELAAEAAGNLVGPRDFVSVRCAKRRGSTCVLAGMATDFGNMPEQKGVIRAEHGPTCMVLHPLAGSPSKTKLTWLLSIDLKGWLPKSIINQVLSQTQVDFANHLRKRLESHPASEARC
Assay: FastStep SPR equilibrium binding of carotenoids to immobilized StARD1
Numeric answer plus unit only.

compound_string=CC1=C[C@H](O)CC(C)(C)[C@H]1/C=C/C(C)=C/C=C/C(C)=C/C=C/C=C(C)/C=C/C=C(C)/C=C/C1=C(C)C[C@@H](O)CC1(C)C target_system="StARD1 protein binding domain (residues 63–285) (Homo sapiens, UniProt P49675)" test_result="1150 nM"

query: // lookup Kd for CC1=C(/C=C/C(C)=C/C=C/C(C)=C/C=C/C=C(C)/C=C/C=C(C)/C=C/C2=C(C)CCCC2(C)C)C(C)(C)CCC1
result: 1790 nM

query: # query: Kd of entry CC1=C(/C=C/C(C)=C/C=C/C(C)=C/C=C/C=C(C)/C=C/C=C(C)/C=C/C2=C(C)C(=O)[C@@H](O)CC2(C)C)C(C)(C)C[C@H](O)C1=O
result: 1960 nM

query: Any idea what its Kd is? The compound is CC1=C(/C=C/C(C)=C/C=C/C(C)=C/C=C/C=C(C)/C=C/C=C(C)/C=C/C2=C(C)C[C@@H](O)CC2(C)C)C(C)(C)C[C@H](O)C1
result: 1320 nM
